Items are presented alongside their recorded Ki.
Assay: Displacement of C18-Aib-lucifer yellow from HIV1 envelope glycoprotein gp41 Fe(env2.0)3 by fluorescence assay
Design: species or system Human immunodeficiency virus 1

{"input.smiles": "N[C@@H](Cc1c[nH]c2ccccc12)C(=O)Nc1ccc(C(=O)N[C@@H](CCc2ccccc2)C(=O)O)cc1OCc1ccc(Cl)cc1", "Ki": "< 25 µM"}
{"input.smiles": "CSCC[C@H](N)C(=O)Nc1ccc(C(=O)N[C@@H](CCc2ccccc2)C(=O)O)cc1OCc1ccc(Cl)cc1", "Ki": "< 25 µM"}
{"input.smiles": "CC(C)C[C@H](N)C(=O)Nc1ccc(C(=O)N[C@@H](CCc2ccccc2)C(=O)O)cc1OCc1ccc2ccccc2c1", "Ki": "< 10 µM"}
{"input.smiles": "CC[C@H](N)C(=O)Nc1ccc(C(=O)N[C@@H](Cc2c[nH]c3ccccc23)C(=O)O)cc1OCCc1c[nH]c2ccccc12", "Ki": "< 10 µM"}
{"input.smiles": "COc1ccc(C[C@H](N)C(=O)Nc2ccc(C(=O)N[C@H](CCC(=O)O)Cc3c[nH]c4ccccc34)cc2OCCc2c[nH]c3ccccc23)cc1", "Ki": "100 µM"}
{"input.smiles": "COC(=O)[C@H](Cc1c[nH]c2ccccc12)NC(=O)c1ccc(NC(=O)[C@@H](N)CC(=O)O)c(OCCc2c[nH]c3ccccc23)c1", "Ki": "21 µM"}
{"input.smiles": "C[C@H](N)C(=O)Nc1ccc(C(=O)N[C@@H](Cc2c[nH]c3ccccc23)C(=O)O)cc1OCCc1c[nH]c2ccccc12", "Ki": "< 10 µM"}

---

Items are presented alongside their recorded Ki.
Assay: Displacement of C18-Aib-lucifer yellow from HIV1 envelope glycoprotein gp41 Fe(env2.0)3 by fluorescence assay
Design: species or system Human immunodeficiency virus 1

{"input.smiles": "N[C@@H](Cc1c[nH]c2ccccc12)C(=O)Nc1ccc(C(=O)N[C@@H](CCc2ccccc2)C(=O)O)cc1OCc1ccc2ccccc2c1", "Ki": "< 10 µM"}
{"input.smiles": "N[C@@H](CC(=O)O)C(=O)Nc1ccc(C(=O)N[C@H](CC(=O)O)Cc2c[nH]c3ccccc23)cc1OCCc1c[nH]c2ccccc12", "Ki": "0.6 µM"}
{"input.smiles": "O=C(O)CCC(=O)Nc1ccc(C(=O)N[C@@H](Cc2c[nH]c3ccccc23)C(=O)O)cc1OCCc1c[nH]c2ccccc12", "Ki": "0.6 µM"}
{"input.smiles": "CC(C)C[C@H](NC(=O)c1ccc(NC(=O)[C@@H](N)Cc2ccc3ccccc3c2)c(OCCc2c[nH]c3ccccc23)c1)C(=O)O", "Ki": "< 10 µM"}
{"input.smiles": "CC(C)C[C@H](NC(=O)c1ccc(NC(=O)[C@@H](N)CO)c(OCCc2c[nH]c3ccccc23)c1)C(=O)O", "Ki": "< 10 µM"}
{"input.smiles": "CC[C@H](C)[C@H](N)C(=O)Nc1ccc(C(=O)N[C@@H](CCc2ccccc2)C(=O)O)cc1OCc1ccc(Cl)cc1", "Ki": "< 25 µM"}
{"input.smiles": "CC(C)[C@H](N)C(=O)Nc1ccc(C(=O)N[C@@H](Cc2c[nH]c3ccccc23)C(=O)O)cc1OCCc1c[nH]c2ccccc12", "Ki": "< 10 µM"}
